Target: Menin MLL 4-43 (Homo sapiens, UniProt O00255)
Sequence (O00255 1-610): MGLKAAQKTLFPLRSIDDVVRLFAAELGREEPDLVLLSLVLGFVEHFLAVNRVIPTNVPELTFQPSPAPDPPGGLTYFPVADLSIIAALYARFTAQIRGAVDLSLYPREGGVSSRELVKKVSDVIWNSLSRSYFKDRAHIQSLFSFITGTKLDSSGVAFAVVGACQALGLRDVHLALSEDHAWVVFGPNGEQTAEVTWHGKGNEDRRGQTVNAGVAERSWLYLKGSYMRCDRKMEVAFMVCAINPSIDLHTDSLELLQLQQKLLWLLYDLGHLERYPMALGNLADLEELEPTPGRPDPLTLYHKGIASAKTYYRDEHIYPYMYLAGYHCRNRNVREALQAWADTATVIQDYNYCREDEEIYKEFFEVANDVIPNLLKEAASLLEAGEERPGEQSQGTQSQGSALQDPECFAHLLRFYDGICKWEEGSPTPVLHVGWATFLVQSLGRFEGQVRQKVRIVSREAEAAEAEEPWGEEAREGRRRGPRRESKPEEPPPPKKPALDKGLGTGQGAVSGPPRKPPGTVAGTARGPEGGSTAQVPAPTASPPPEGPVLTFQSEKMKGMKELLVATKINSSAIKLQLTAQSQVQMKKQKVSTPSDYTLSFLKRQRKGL
Experiment: Fluorescence polarization (FP) competition assay of the menin-MLL interaction
Conditions: fluorescence polarization competition with fluorescein-labeled MLL peptide
Description: This example illustrates an assay effective in monitoring the binding of MLL to menin. […] Binding of the labeled peptide (1.7 kDa) to the much larger menin (˜67 kDa) is accompanied by a significant change in the rotational correlation time of the fluorophore, resulting in a substantial increase in the fluorescence polarization and fluorescence anisotropy (excitation at 500 nm, emission at 525 nm).
IC50 values, listed per item
reported-property: IC50

| compound | reported-property | result |
| --- | --- | --- |
| CNc1nc(N2CC3CCN(Cc4ccccc4)C3C2)c2cc(CC(F)(F)F)sc2n1 (stereo not shown) | IC50 | > 1000 nM |
| Cc1nc(N2CCC3(CCN(Cc4ccc5c(cc(C#N)n5C[C@H](C)N5CCN(S(C)(=O)=O)CC5)c4C)C3)C2)c2cc(CC(F)(F)F)sc2n1 (stereo partly shown) [Compound 8] | IC50 | 50 to 250 nM |
| CNc1nc(N2CCC3(CCN(Cc4ccc(NS(C)(=O)=O)cc4)C3)C2)c2cc(CC(F)(F)F)sc2n1 (stereo not shown) | IC50 | 50 to 250 nM |
| CNc1nc(N2CCC3(CCN(Cc4ccc5c(cc(C#N)n5C[C@H](C)N5CCN(S(C)(=O)=O)CC5)c4C)C3)C2)c2cc(CC(F)(F)F)sc2n1 (stereo partly shown) | IC50 | 50 to 250 nM |
| CNc1nc(N2CCC3(CCN(Cc4ccc(NS(=O)(=O)NC)cc4)C3)C2)c2cc(CC(F)(F)F)sc2n1 (stereo not shown) | IC50 | > 1000 nM |
| CNc1nc(N2CC3CCN(Cc4ccccc4)CC3C2)c2cc(CC(F)(F)F)sc2n1 (stereo not shown) | IC50 | > 1000 nM |
| CNc1nc(N2CCC3(CCN(Cc4ccc5[nH]c(C#N)cc5c4C)C3)C2)c2cc(CC(F)(F)F)sc2n1 (stereo not shown) | IC50 | 250 to 1000 nM |
| CNc1nc(N2CCC3(CCN(Cc4ccc5c(cc(C#N)n5C[C@H](C)N5CCC(S(=O)(=O)NC)CC5)c4C)C3)C2)c2cc(CC(F)(F)F)sc2n1 (stereo partly shown) | IC50 | < 50 nM |
| Cc1c(CN2CC3CN(c4ncnc5sc(CC(F)(F)F)cc45)CC3C2)ccc2[nH]c(C#N)cc12 (stereo not shown) | IC50 | > 1000 nM |
| CNc1nc(N2CCC3(CCN(Cc4ccc5c(cc(C#N)n5C[C@@H]5CNC(=O)CO5)c4C)C3)C2)c2cc(CC(F)(F)F)sc2n1 (stereo partly shown) | IC50 | < 50 nM |
| CNc1nc(N2CCC3CCN(Cc4ccc5[nH]c(=O)[nH]c5c4)C3C2)c2cc(CC(F)(F)F)sc2n1 (stereo not shown) | IC50 | > 1000 nM |
| CCC(=O)NC12CC(Cn3c(C#N)cc4c(C)c(CN5CCC6(CCN(c7nc(NC)nc8sc(CC(F)(F)F)cc78)C6)C5)ccc43)(C1)C2 (stereo not shown) | IC50 | 50 to 250 nM |
| Cc1nc(N2CC3CN(Cc4ccc5[nH]c(C#N)cc5c4C)CC3C2)c2cc(CC(F)(F)F)sc2n1 (stereo not shown) | IC50 | > 1000 nM |
| CNc1nc(N2CC3CN(Cc4ccc(NS(C)(=O)=O)cc4)CC3C2)c2cc(CC(F)(F)F)sc2n1 (stereo not shown) | IC50 | > 1000 nM |
| CNc1nc(N2CCC3CCN(Cc4ccccc4)C3C2)c2cc(CC(F)(F)F)sc2n1 (stereo not shown) | IC50 | > 1000 nM |
| CNc1nc(N2CC3CN(CCc4ccc5[nH]ccc5c4)CC3C2)c2cc(CC(F)(F)F)sc2n1 (stereo not shown) | IC50 | 250 to 1000 nM |
| CNc1nc(N2CC3CCN(CCc4ccccc4)CC3C2)c2cc(CC(F)(F)F)sc2n1 (stereo not shown) | IC50 | > 1000 nM |
| CNc1nc(N2CCC3CCN(Cc4ccc5[nH]c(C#N)cc5c4C)C3C2)c2cc(CC(F)(F)F)sc2n1 (stereo not shown) | IC50 | > 1000 nM |
| Cc1c(CN2CCC3(CCN(c4ncnc5sc(CC(F)(F)F)cc45)C3)C2)ccc2c1cc(C#N)n2C[C@@H]1CNC(=O)OC1 (stereo partly shown) | IC50 | < 50 nM |
| CNc1nc(N2CC3CN(Cc4ccc(NC(C)=O)cc4)CC3C2)c2cc(CC(F)(F)F)sc2n1 (stereo not shown) | IC50 | > 1000 nM |
| Cc1nc(N2CCC3(CCN(Cc4ccc5[nH]c(C#N)cc5c4C)C3)C2)c2cc(CC(F)(F)F)sc2n1 (stereo not shown) | IC50 | > 1000 nM |
| CNc1nc(N2CC3CN(Cc4ccc5c(cc(C#N)n5CCN5CCN(S(C)(=O)=O)CC5)c4C)CC3C2)c2cc(CC(F)(F)F)sc2n1 (stereo not shown) | IC50 | > 1000 nM |
| CNc1nc(N2CCC3CN(CCc4ccccc4)CC3C2)c2cc(CC(F)(F)F)sc2n1 (stereo not shown) | IC50 | > 1000 nM |
| Cc1c(CN2CCC3(CCN(c4ncnc5sc(CC(F)(F)F)cc45)C3)C2)ccc2c1cc(C#N)n2C[C@H](C)N1CCN(S(C)(=O)=O)CC1 (stereo partly shown) | IC50 | < 50 nM |
| Cc1nc(N2CCC3(CCN(Cc4ccc5c(c4)[nH]c(=O)n5CCO)C3)C2)c2cc(CC(F)(F)F)sc2n1 (stereo not shown) | IC50 | 250 to 1000 nM |
| Cc1nc(N2CCC3(CCN(Cc4ccc(NS(C)(=O)=O)cc4)C3)C2)c2cc(CC(F)(F)F)sc2n1 (stereo not shown) | IC50 | 250 to 1000 nM |
| CNS(=O)(=O)C1CCN([C@@H](C)Cn2c(C#N)cc3c(C)c(CN4CCC5(CCN(c6ncnc7sc(CC(F)(F)F)cc67)C5)C4)ccc32)CC1 (stereo partly shown) | IC50 | < 50 nM |
| CNc1nc(N2CCC3(CCN(Cc4ccc5c(c4)[nH]c(=O)n5CCO)C3)C2)c2cc(CC(F)(F)F)sc2n1 (stereo not shown) | IC50 | < 50 nM |
